Field: ED50. Provide a value for each of the compounds that follow.
Test system: Plasmodium berghei
experimentSummary: In vivo effective dose for antimalarial activity by peroral dose
Assay type: functional
measurementContext: po
One number for each entry, in mg/kg.

[[record]]
compound = "CCN(CC)CCCC(C)Nc1ccnc2cc(Cl)ccc12 (centres undefined)"
reported = 32

[[record]]
compound = "O=C(C[C@H]1NCC[C@H](O)[C@@H]1O)Cn1cnc2ccccc2c1=O"
reported = 8

[[record]]
compound = "O=C(C[C@H]1NCCC[C@@H]1O)Cn1cnc2ccc(O)cc2c1=O"
reported = 15


Now for the compound whose ED50 we want.
Request: Return the recorded ED50 value; entry: C[C@@H]1CC[C@H]2[C@@H](C)C(=O)O[C@@H]3O[C@@]4(C)CC[C@@H]1[C@]32OO4
Response: 3
